# Tested on: ATP;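 note: ATP exposure 15 min at 22 °C before imaging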
# TEST NAME: switch fluorescence ratio, 500 uM ATP over buffer (Cy3 cluster intensity, sum of 5 cycles each) (fold (ratio)); higher = stronger signal-on switching upon ATP binding; sequences stand for … in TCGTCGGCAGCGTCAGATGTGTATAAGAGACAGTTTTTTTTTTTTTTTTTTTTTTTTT…TC
# ASSAY CONDITIONS: aptamer strand: ATP DNA aptamer (quencher-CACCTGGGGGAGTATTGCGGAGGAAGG + anchor), 100 nM annealed; ATP concentration: 500 uM

| RESIDUE STRING | TGT | switch fluorescence ratio |
| --- | --- | --- |
| GGGGGATATC | ATP | 0.994 |
| GGGGAAGAGG | ATP | 0.983 |
| TTTTCGTGGG | ATP | 0.986 |
| TGTCGTCTTC | ATP | 0.99 |
| GTTGTTGCTT | ATP | 0.982 |
| AGTCTGCCA | ATP | 0.977 |
| TATAGATGAC | ATP | 0.989 |
| AAGTATTATC | ATP | 1.01 |
| ATGTAATTCG | ATP | 1 |
| CCATTTGTGT | ATP | 0.976 |
| CGCATGAGTT | ATP | 1.02 |
| GTCACACTAT | ATP | 1.02 |
| GGGTAACTGG | ATP | 1 |
| CGTCATTGGG | ATP | 0.992 |
| GGCGCTTGTT | ATP | 0.975 |
| TCTTGGATGG | ATP | 0.986 |
| TGATTATGGA | ATP | 0.995 |
| GGGATAAAAT | ATP | 1.01 |
| CAACATCTAT | ATP | 1.02 |
| TATAGGTATG | ATP | 1.01 |
| TTTGTGTAGC | ATP | 1 |
| GGGTTCATTG | ATP | 0.974 |

* * *

# System: ATP;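 note: ATP exposure 15 min at 22 °C before imaging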
# TEST NAME: switch fluorescence ratio, 500 uM ATP over buffer (Cy3 cluster intensity, sum of 5 cycles each) (fold (ratio)); higher = stronger signal-on switching upon ATP binding; sequences stand for … in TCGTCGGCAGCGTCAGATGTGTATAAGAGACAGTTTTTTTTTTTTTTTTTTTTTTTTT…TC
# ASSAY CONDITIONS: aptamer strand: ATP DNA aptamer (quencher-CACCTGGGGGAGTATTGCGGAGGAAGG + anchor), 100 nM annealed; ATP concentration: 500 uM
switch fluorescence ratio reference
MEASUREMENT LABEL: switch fluorescence ratio

| RESIDUE STRING | MEASUREMENT LABEL | OBSERVED VALUE |
| --- | --- | --- |
| ATTATCGTAG | switch fluorescence ratio | 0.994 |
| GGATTCAAAG | switch fluorescence ratio | 0.993 |
| TGGGTTTTTT | switch fluorescence ratio | 1.01 |
| TCGATGTTGG | switch fluorescence ratio | 0.984 |
| GGAGAGAAGC | switch fluorescence ratio | 1.02 |
| AGCCGTTTTT | switch fluorescence ratio | 0.973 |
| GAAATTTGAA | switch fluorescence ratio | 1.01 |
| CTTTGGGTTG | switch fluorescence ratio | 1 |
| AGTGACGGTT | switch fluorescence ratio | 0.977 |
| TTGTGGTGTT | switch fluorescence ratio | 0.986 |
| TTTTTTATGC | switch fluorescence ratio | 0.997 |
| TCGGGGGCTT | switch fluorescence ratio | 0.996 |
| GTTCTTTTAT | switch fluorescence ratio | 1.01 |
| GATTGGGGTA | switch fluorescence ratio | 0.978 |
| TACTAGGGGA | switch fluorescence ratio | 1 |
| CCAATCCAGT | switch fluorescence ratio | 1.01 |
| TTGGATGTGG | switch fluorescence ratio | 1.02 |
| TTGATTCGT | switch fluorescence ratio | 0.99 |
| CGGTTGGGTT | switch fluorescence ratio | 0.997 |

* * *

# Test system: ATP;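 note: ATP exposure 15 min at 22 °C before imaging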
# TEST NAME: switch fluorescence ratio, 500 uM ATP over buffer (Cy3 cluster intensity, sum of 5 cycles each) (fold (ratio)); higher = stronger signal-on switching upon ATP binding; sequences stand for … in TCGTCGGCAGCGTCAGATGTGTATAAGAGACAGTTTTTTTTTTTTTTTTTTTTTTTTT…TC
# ASSAY CONDITIONS: aptamer strand: ATP DNA aptamer (quencher-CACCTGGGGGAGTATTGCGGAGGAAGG + anchor), 100 nM annealed; ATP concentration: 500 uM
MEASUREMENT LABEL: switch fluorescence ratio

| RESIDUE STRING | OBSERVED VALUE |
| --- | --- |
| CGTATCCCGT | 0.974 |
| ATTATTTTAC | 0.976 |
| GATGAAAAGT | 0.976 |
| CAGGAATATA | 1.01 |
| TACCACCGGT | 1.02 |
| TGATAGGTGG | 1 |
| TATCGGAGAG | 0.984 |
| GAGAAGCAGT | 1 |
| GACGGGCAAG | 1.02 |
| AGATGTTAGC | 0.983 |
| GGGTTGGGCT | 1 |
| TTTGGATTTT | 1 |
| ATGAAAAAAG | 0.993 |
| AGTTTGCTCG | 0.971 |
| TTCAGTTTAG | 1 |
| GGGGGGGAGT | 0.995 |
| TATTGGGGGT | 1.01 |
| AATGTCAGGA | 1.01 |
| GAGTAAAGTT | 0.982 |
| GGGGTTGGGA | 0.971 |

* * *

# System: ATP;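 note: ATP exposure 15 min at 22 °C before imaging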
# TEST NAME: switch fluorescence ratio, 500 uM ATP over buffer (Cy3 cluster intensity, sum of 5 cycles each) (fold (ratio)); higher = stronger signal-on switching upon ATP binding; sequences stand for … in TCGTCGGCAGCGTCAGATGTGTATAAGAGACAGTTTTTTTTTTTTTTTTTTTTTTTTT…TC
# ASSAY CONDITIONS: aptamer strand: ATP DNA aptamer (quencher-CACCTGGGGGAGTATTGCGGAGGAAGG + anchor), 100 nM annealed; ATP concentration: 500 uM
MEASUREMENT LABEL: switch fluorescence ratio

| RESIDUE STRING | OBSERVED VALUE |
| --- | --- |
| ATGTAGGAAC | 0.999 |
| AGCCTCGGTT | 1 |
| AGACTGGTTG | 0.993 |
| GGGTTCTATG | 1 |
| GCAATTGTTG | 1.02 |
| TGGCTCGAGC | 1.01 |
| ATATTCAGTA | 1 |
| CTAGGTTCTG | 1.01 |
| AATAATGGTT | 1.01 |
| AATAGAGGAG | 1.01 |
| ACAGAATAGG | 1.02 |
| TTGGGGACTT | 1.02 |
| TCGTTGGGAT | 0.986 |
| TGGGAATGCC | 0.994 |
| TGGTAGTTTG | 0.995 |

* * *

# Tested on: ATP;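 note: ATP exposure 15 min at 22 °C before imaging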
# TEST NAME: switch fluorescence ratio, 500 uM ATP over buffer (Cy3 cluster intensity, sum of 5 cycles each) (fold (ratio)); higher = stronger signal-on switching upon ATP binding; sequences stand for … in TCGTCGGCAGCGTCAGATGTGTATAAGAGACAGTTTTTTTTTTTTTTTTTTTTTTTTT…TC
# ASSAY CONDITIONS: aptamer strand: ATP DNA aptamer (quencher-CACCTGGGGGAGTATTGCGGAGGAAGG + anchor), 100 nM annealed; ATP concentration: 500 uM

| RESIDUE STRING | switch fluorescence ratio |
| --- | --- |
| GAGTCAGGTA | 1.01 |
| GCATTTAAGT | 0.993 |
| AACCTGGGTA | 1.01 |
| GCCATGGACA | 0.985 |
| TGCGAGATTT | 1.01 |
| ATAAGGCGGG | 0.971 |
| GGTGTGTTAA | 0.996 |

* * *

# Test system: ATP;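 note: ATP exposure 15 min at 22 °C before imaging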
# TEST NAME: switch fluorescence ratio, 500 uM ATP over buffer (Cy3 cluster intensity, sum of 5 cycles each) (fold (ratio)); higher = stronger signal-on switching upon ATP binding; sequences stand for … in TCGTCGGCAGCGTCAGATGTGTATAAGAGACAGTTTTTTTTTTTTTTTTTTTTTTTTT…TC
# ASSAY CONDITIONS: aptamer strand: ATP DNA aptamer (quencher-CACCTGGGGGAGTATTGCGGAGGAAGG + anchor), 100 nM annealed; ATP concentration: 500 uM
MEASUREMENT LABEL: switch fluorescence ratio

| RESIDUE STRING | MEASUREMENT LABEL | OBSERVED VALUE |
| --- | --- | --- |
| CAAATTCGTC | switch fluorescence ratio | 1.07 |
| CGTATTTTGC | switch fluorescence ratio | 1.03 |
| GGATGAGGGA | switch fluorescence ratio | 0.957 |
| ACCGGCGGTT | switch fluorescence ratio | 1.01 |
| TTGTCTGGGG | switch fluorescence ratio | 0.985 |
| TATCATGCGC | switch fluorescence ratio | 1.02 |
| ACGTTATGTG | switch fluorescence ratio | 1.05 |
| GCCCGCCCGC | switch fluorescence ratio | 1.38 |
| ATGGCTAATA | switch fluorescence ratio | 0.981 |
| TTGGGGGG | switch fluorescence ratio | 1 |
| ATCCGGCGAT | switch fluorescence ratio | 1.35 |
| TTTTCACCGT | switch fluorescence ratio | 1.06 |
| CGGGGGATCT | switch fluorescence ratio | 1.01 |
| CAGGATCATG | switch fluorescence ratio | 1.11 |
| GGGCACGTGG | switch fluorescence ratio | 0.995 |
| TTTTTAGGGG | switch fluorescence ratio | 1.02 |
| AGTTTTGTGC | switch fluorescence ratio | 1.01 |
| TATTTTCGGA | switch fluorescence ratio | 0.97 |
| TTTGCAGCGG | switch fluorescence ratio | 1.02 |
| ATGATTTGAG | switch fluorescence ratio | 0.991 |
| TTAGAGCTGG | switch fluorescence ratio | 1.01 |
| GTGGTTCCTG | switch fluorescence ratio | 0.967 |
| TCAATCGACA | switch fluorescence ratio | 1 |
